Origin of the recorded values: PubChem BioAssay AID2732

# assay: blockers of ER-stress CHOP reporter expression – cell-based, unfolded protein response, luciferase reporter, primary screen (AID 2732);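 note: 0% = tunicamycin plus vehicle and 100% = wells without tunicamycin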
# condition_notes: CHO-K1 CHOP-promoter luciferase, tunicamycin-induced, 15-18 h; at 10 µM; active compounds read high
Hit rate of the full screen: of about 220,000 compounds, about 8,200 (3.7%) were called active. The full list was thinned out, with actives kept by preference.

>  <molecule>
O=C(O)COc1ccccc1/C=C1\C(=O)NC(=O)N(CCC2=CCCCC2)C1=O

>  <inhibition>
-7.81% (inactive)

$$$$
>  <molecule>
COC(=O)N(c1ccc(OC)cc1)P1(=S)OCCC(C)O1 (stereo not drawn)

>  <inhibition>
-1.61% (inactive)

$$$$
>  <molecule>
CCC(=NCCCO)c1c(O)n(-c2ccc(OC)cc2)c(=O)[nH]c1=O

>  <inhibition>
14.6% (inactive)

$$$$
